ASSAYED SYSTEM: Neutrophil collagenase (Homo sapiens, UniProt P22894)
Sequence (P22894 whole entry): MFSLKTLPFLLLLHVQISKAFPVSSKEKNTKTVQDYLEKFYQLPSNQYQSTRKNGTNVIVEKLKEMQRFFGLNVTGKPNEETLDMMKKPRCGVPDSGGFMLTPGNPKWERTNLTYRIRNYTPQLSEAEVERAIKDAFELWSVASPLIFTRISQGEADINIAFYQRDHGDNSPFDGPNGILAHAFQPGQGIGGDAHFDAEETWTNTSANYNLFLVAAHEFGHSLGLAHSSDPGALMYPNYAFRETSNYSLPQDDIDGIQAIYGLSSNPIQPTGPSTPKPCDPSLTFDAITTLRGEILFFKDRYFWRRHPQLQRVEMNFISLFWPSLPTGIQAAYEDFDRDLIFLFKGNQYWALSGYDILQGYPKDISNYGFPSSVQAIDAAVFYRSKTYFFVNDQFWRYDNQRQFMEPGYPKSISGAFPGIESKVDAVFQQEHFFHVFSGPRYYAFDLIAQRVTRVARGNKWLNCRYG
pKi: −log10 of the molar value.
Label rule met when pKi >= 8; otherwise rule not met.

Sample answers from the record:
ENTRY SMILES	ASSAYED SYSTEM	LABEL VALUE
O=C(CN(Cc1ccc([N+](=O)[O-])cc1)S(=O)(=O)c1cccc(NC(=O)NS(=O)(=O)c2ccc(Cl)cc2)c1)NO	Neutrophil collagenase (Homo sapiens, UniProt P22894)	rule met
O=C(CN(Cc1ccc([N+](=O)[O-])cc1)S(=O)(=O)c1ccc(Br)cc1)NO	Neutrophil collagenase (Homo sapiens, UniProt P22894)	rule not met
O=C(CN(Cc1ccc([N+](=O)[O-])cc1)C(=O)Nc1ccc(Cl)c(Cl)c1)NO	Neutrophil collagenase (Homo sapiens, UniProt P22894)	rule met

Now turn to the next molecule.
Record O=C(O)CN(Cc1ccc([N+](=O)[O-])cc1)S(=O)(=O)c1ccc(NC(=O)NS(=O)(=O)c2ccccc2)cc1 ; criterion: pKi no lower than 8. Met? rule not met

---

ASSAYED SYSTEM: Neutrophil collagenase (Homo sapiens, UniProt P22894)
pKi: −log10 of the molar value.
Label 1 (yes) when pKi >= 8; otherwise 0 (no).

Sample answers from the record:
ENTRY SMILES	ASSAYED SYSTEM	LABEL VALUE
O=C(CN(Cc1ccc([N+](=O)[O-])cc1)C(=O)Nc1cccc2ccccc12)NO	Neutrophil collagenase (Homo sapiens, UniProt P22894)	0 (no)
CN(C)c1cccc2c(S(=O)(=O)N(CC(=O)NO)Cc3ccc([N+](=O)[O-])cc3)cccc12	Neutrophil collagenase (Homo sapiens, UniProt P22894)	0 (no)
O=C(CN(Cc1ccc([N+](=O)[O-])cc1)S(=O)(=O)c1cccc(C(F)(F)F)c1)NO	Neutrophil collagenase (Homo sapiens, UniProt P22894)	1 (yes)
Cc1ccc(S(=O)(=O)NC(=O)Nc2cccc(S(=O)(=O)N(CC(=O)O)Cc3ccc([N+](=O)[O-])cc3)c2)cc1	Neutrophil collagenase (Homo sapiens, UniProt P22894)	0 (no)
O=C(CN(Cc1ccc([N+](=O)[O-])cc1)C(=O)NS(=O)(=O)c1ccc(Cl)cc1)NO	Neutrophil collagenase (Homo sapiens, UniProt P22894)	1 (yes)
O=C(O)CN(Cc1ccc([N+](=O)[O-])cc1)S(=O)(=O)c1cccc(NC(=O)NS(=O)(=O)c2ccc(F)cc2)c1	Neutrophil collagenase (Homo sapiens, UniProt P22894)	0 (no)
O=C(CN(Cc1ccc([N+](=O)[O-])cc1)S(=O)(=O)c1cccc(NC(=O)NS(=O)(=O)c2ccccc2)c1)NO	Neutrophil collagenase (Homo sapiens, UniProt P22894)	1 (yes)
O=C(CN(Cc1ccc([N+](=O)[O-])cc1)S(=O)(=O)c1ccc(NC(=O)NS(=O)(=O)c2ccc(Cl)cc2)cc1)NO	Neutrophil collagenase (Homo sapiens, UniProt P22894)	1 (yes)
Cc1ccc(S(=O)(=O)NC(=O)Nc2cccc(S(=O)(=O)N(CC(=O)NO)Cc3ccc([N+](=O)[O-])cc3)c2)cc1	Neutrophil collagenase (Homo sapiens, UniProt P22894)	1 (yes)
CS(=O)(=O)N(CC(=O)NO)Cc1ccc([N+](=O)[O-])cc1	Neutrophil collagenase (Homo sapiens, UniProt P22894)	0 (no)

Record Cc1ccc(S(=O)(=O)N(CC(=O)NO)Cc2ccc([N+](=O)[O-])cc2)cc1 ; criterion: pKi no lower than 8. Met? 0 (no)

---

Observed Ki values for Neutrophil collagenase (Homo sapiens) are listed in what follows.
One number for each entry, in µM.

As a guide, the following entries are already answered.
ENTRY SMILES	ASSAYED SYSTEM	Ki [µM]
CC(C)(C)OC(=O)Nc1ccc(S(=O)(=O)N(CC(=O)NO)Cc2ccc([N+](=O)[O-])cc2)cc1	Neutrophil collagenase (Homo sapiens)	0.011
O=C(CN(Cc1ccc([N+](=O)[O-])cc1)S(=O)(=O)c1ccc(F)cc1)NO	Neutrophil collagenase (Homo sapiens)	0.015
O=C(CN(Cc1ccc([N+](=O)[O-])cc1)S(=O)(=O)c1cc(Cl)ccc1Cl)NO	Neutrophil collagenase (Homo sapiens)	0.013
O=C(CN(Cc1ccc([N+](=O)[O-])cc1)S(=O)(=O)c1ccccc1[N+](=O)[O-])NO	Neutrophil collagenase (Homo sapiens)	0.013
COc1ccc(S(=O)(=O)N(CC(=O)NO)Cc2ccc([N+](=O)[O-])cc2)cc1NC(=O)OC(C)(C)C	Neutrophil collagenase (Homo sapiens)	0.007

Answer for every listed entry: what is its Ki? The entries follow.
1. O=C(CN(Cc1ccc([N+](=O)[O-])cc1)S(=O)(=O)c1ccc([N+](=O)[O-])c(Cl)c1)NO
2. CC(C)(C)OC(=O)Nc1cccc(S(=O)(=O)N(CC(=O)NO)Cc2ccc([N+](=O)[O-])cc2)c1

0.006
0.015

Answer for every listed entry: what is its Ki? The entries follow.
1. Cc1ccc(S(=O)(=O)NC(=O)N(CC(=O)NO)Cc2ccc([N+](=O)[O-])cc2)cc1
2. CC(=O)Nc1ccc(S(=O)(=O)N(CC(=O)NO)Cc2ccc([N+](=O)[O-])cc2)cc1

0.006
0.009

src = ChEMBL document CHEMBL1132937
